TARGET OR SYSTEM: human cathepsin B in DU145 lysates (Homo sapiens, UniProt P07858)
ASSAY PROCEDURE: Cathepsin B activity in DU145 cell lysates, Z-Arg-Arg-AMC
TEST PARAMETERS: 1 alone; DU145 lysate
VALUE KIND: pIC50
Here pIC50 is given on a logarithmic scale as minus log10 of the concentration in mol/L.

Query: pIC50 for CC(=O)N[C@@H](Cc1ccccc1)C(=O)NCC#N [compound 1, Ac-Phe-NHCH2CN, reference compound] ?
Reply: 3.74

----------
TARGET OR SYSTEM: papain (Carica papaya, UniProt P00784)
Sequence (P00784 134-345): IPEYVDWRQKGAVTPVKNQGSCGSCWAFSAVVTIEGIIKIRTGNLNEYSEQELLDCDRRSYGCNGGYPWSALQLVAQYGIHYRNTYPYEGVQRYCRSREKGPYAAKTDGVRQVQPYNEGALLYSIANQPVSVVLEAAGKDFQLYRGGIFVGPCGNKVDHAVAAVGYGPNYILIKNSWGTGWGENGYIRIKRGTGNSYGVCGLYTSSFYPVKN
VALUE KIND: IC50 (nM)
The reply should be a number in nM, with the unit left off.

Query: Give its IC50 value. Item: CC(=O)N[C@@H](Cc1ccccc1)C(=O)NCC#N [compound 1, Ac-Phe-NHCH2CN, reference compound]
Reply: 638
